The origin of these recorded values is paper PMC5814047.

target: IDE (Homo sapiens); construct: made in house; host or cells: bacteria; test: biochemical; settings: Cheng-Prusoff, KM 10 uM, substrate concentration 5 uM; read-out: Ki values, Mean
Ends that are not written are not given here.
readout_type: Ki (µM)
Write down the numeric answer in µM and omit the unit.

Would you please look over these solved cases?
Which Ki is reported for this substance? VHWDFRQWWQPS-NH2 [P12-1A]
5.3

Same again, this time with WSPISGKFFQRF [P12-4]
3.93

Please do the same for VHWDFRQWWQPS [P12-1] as well.
7.71

Next:
Need Ki of QSLPWCYP-NH2 [P12-3B] , thanks.
39.4

And for VHWDFRQW-NH2 [P12-1B] ?
40.9

Please answer likewise for WSPISGKFFQRF-NH2 [P12-4A]
4.25

====

Target: IDE (Homo sapiens, UniProt P14735)
Construct: made in house; host or cells: bacteria
Sequence (P14735 1-1019): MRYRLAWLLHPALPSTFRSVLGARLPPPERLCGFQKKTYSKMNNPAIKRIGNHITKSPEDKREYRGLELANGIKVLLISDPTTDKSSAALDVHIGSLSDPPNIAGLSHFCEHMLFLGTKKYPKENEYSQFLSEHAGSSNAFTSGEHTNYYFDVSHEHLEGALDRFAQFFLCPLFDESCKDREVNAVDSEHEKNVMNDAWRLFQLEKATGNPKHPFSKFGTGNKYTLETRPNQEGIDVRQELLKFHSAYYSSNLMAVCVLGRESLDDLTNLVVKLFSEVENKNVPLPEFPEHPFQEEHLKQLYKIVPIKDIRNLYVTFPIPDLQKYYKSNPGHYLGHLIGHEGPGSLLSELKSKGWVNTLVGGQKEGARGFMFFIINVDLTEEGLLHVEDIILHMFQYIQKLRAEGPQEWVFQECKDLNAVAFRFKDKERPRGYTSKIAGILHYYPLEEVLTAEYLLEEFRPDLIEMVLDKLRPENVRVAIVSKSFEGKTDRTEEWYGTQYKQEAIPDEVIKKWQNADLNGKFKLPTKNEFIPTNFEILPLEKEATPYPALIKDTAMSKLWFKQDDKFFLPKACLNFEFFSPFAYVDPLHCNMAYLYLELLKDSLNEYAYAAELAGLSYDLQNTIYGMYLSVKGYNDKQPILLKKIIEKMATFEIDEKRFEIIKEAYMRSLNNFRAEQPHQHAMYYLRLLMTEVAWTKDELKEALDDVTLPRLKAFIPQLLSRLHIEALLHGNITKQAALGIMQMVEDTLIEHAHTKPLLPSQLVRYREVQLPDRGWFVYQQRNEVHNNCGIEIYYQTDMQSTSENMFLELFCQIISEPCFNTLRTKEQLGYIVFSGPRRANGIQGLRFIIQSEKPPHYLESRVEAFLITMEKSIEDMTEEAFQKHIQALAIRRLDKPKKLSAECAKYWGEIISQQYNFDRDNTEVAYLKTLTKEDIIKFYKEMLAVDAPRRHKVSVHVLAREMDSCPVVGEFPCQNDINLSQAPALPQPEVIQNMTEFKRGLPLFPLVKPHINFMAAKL
Experiment: biochemical
Details: judged as IC50 <100 uM?; N 4; read-out: Percent activity at 500 uM, Mean
Bridge positions count the residues as written; N and C are the ends. Peptide text beside a SMILES is read from it.
readout_type: remaining activity at 500 µM (%)
Kindly provide the numeric value in % only, without the unit symbol.

// remaining activity at 500 µM lookup, key: CC[C@H](C)[C@@H]1NC(=O)[C@H](CO)NC(=O)[C@H](Cc2c[nH]c3ccccc23)NC(=O)[C@H](Cc2c[nH]c3ccccc23)NC(=O)[C@H](CO)NC(=O)[C@@H](NC(=O)[C@H](C)N)CSSC[C@@H](C(=O)NCC(=O)O)NC(=O)[C@H](CC(C)C)NC(=O)[C@H](Cc2c[nH]cn2)NC1=O [C7C-1] (H-ACSWWSIHLCG-OH; disulfide 2-10 (inferred))
44.2
